Reference source: paper PMC12589998

assay: Stability of the analytes in rat plasma samples under storage conditions; assay type: physicochemical; conditions: spiked concentration 2 ng/mL, n = 6
Mark YES only when Measured, Room temperature for 4 h stays strictly below 2 ng/mL. Values equal to the cut-off are NO.

See these solved cases before continuing.
{"columns": ["MOLECULE", "GROUP"],
 "data": [
  ["COc1c(O[C@@H]2O[C@H](C(=O)O)[C@@H](O)[C@H](O)[C@H]2O)cc(O)c2c(=O)cc(-c3ccccc3)oc12 [Wogonoside, wogonoside]", "YES"],
  ["COc1c(O)cc2oc(-c3ccc(O)cc3)cc(=O)c2c1O [Hispidulin, hispidulin]", "YES"],
  ["COc1ccc(-c2cc(=O)c3c(O)cc(O)cc3o2)cc1 [Acacetin, acacetin]", "NO"],
  ["O=c1cc(-c2ccc(O)cc2)oc2cc(O)c(O)c(O)c12 [Scutellarein, scutellarein]", "YES"],
  ["O=c1cc(-c2ccc(O)cc2)oc2cc(O)cc(O)c12 [Apigenin, apigenin]", "NO"]
]}

Please indicate whether the reported Measured, Room temperature for 4 h of O=c1c(O)c(-c2ccc(O)c(O)c2)oc2cc(O)cc(O)c12 [Quercetin, quercetin] is strictly below 2 ng/mL.
YES

---

Experiment: Pharmacokinetic study in rats after oral administration of OS extract (UHPLC-QqQ-MS/MS of plasma)
Format: in vivo, rat
Settings: male; rat plasma, oral 3 g/kg OS extract, n = 6, mean ± SD; read-out: Tmax
Method: The UHPLC-QqQ-MS/MS system consisted of a 1290 UHPLC and a 6470 mass spectrometer (Agilent Technologies). Chromatographic separation was realized on utilizing an ACQUITY UPLC BEH C18 column (2.1 × 100 mm, 1.7 μm) maintained at 35 °C. […]
Mark satisfied only when Tmax stays strictly below 20 min. Values equal to the cut-off are not satisfied.

See these solved cases before continuing.
{"columns": ["COMPOUND", "GROUP"],
 "data": [
  ["COc1c(O[C@@H]2O[C@H](C(=O)O)[C@@H](O)[C@H](O)[C@H]2O)cc2oc(-c3ccccc3)cc(=O)c2c1O [Oroxylin A-7-O-β-D-glucuronide, oroxylin A-7-O-β-D-glucuronide]", "not satisfied"],
  ["O=c1cc(-c2ccccc2)oc2cc(O[C@@H]3O[C@H](CO)[C@@H](O)[C@H](O)[C@H]3O)c(O)c(O)c12 [Oroxin A, oroxin A]", "satisfied"],
  ["O=c1cc(-c2ccccc2)oc2cc(O[C@@H]3O[C@H](CO[C@@H]4O[C@H](CO)[C@@H](O)[C@H](O)[C@H]4O)[C@@H](O)[C@H](O)[C@H]3O)c(O)c(O)c12 [Oroxin B, oroxin B]", "satisfied"],
  ["O=c1cc(-c2ccccc2)oc2cc(O)c(O)c(O)c12 [Baicalein, baicalein]", "satisfied"],
  ["O=C(O)[C@H]1O[C@@H](Oc2cc(O)c3c(=O)cc(-c4ccccc4)oc3c2)[C@H](O)[C@@H](O)[C@@H]1O [Chrysin-7-O-β-D-glucuronide, chrysin-7-O-β-D-glucuronide]", "not satisfied"]
]}

Please indicate whether the reported Tmax of O=C(O)[C@H]1O[C@@H](Oc2cc3oc(-c4ccccc4)cc(=O)c3c(O)c2O)[C@H](O)[C@@H](O)[C@@H]1O [Baicalin, baicalin] is strictly below 20 min.
not satisfied

Please indicate whether the reported Tmax of O=c1cc(-c2ccc(O)cc2)oc2cc(O)c(O)c(O)c12 [Scutellarein, scutellarein] is strictly below 20 min.
satisfied
